Molecular target: full-length beta-Catenin (Uniprot ID P35222) (Homo sapiens)
Construct: 10 nM full-length beta-Catenin (Uniprot ID P35222)
Sequence (P35222 1-781): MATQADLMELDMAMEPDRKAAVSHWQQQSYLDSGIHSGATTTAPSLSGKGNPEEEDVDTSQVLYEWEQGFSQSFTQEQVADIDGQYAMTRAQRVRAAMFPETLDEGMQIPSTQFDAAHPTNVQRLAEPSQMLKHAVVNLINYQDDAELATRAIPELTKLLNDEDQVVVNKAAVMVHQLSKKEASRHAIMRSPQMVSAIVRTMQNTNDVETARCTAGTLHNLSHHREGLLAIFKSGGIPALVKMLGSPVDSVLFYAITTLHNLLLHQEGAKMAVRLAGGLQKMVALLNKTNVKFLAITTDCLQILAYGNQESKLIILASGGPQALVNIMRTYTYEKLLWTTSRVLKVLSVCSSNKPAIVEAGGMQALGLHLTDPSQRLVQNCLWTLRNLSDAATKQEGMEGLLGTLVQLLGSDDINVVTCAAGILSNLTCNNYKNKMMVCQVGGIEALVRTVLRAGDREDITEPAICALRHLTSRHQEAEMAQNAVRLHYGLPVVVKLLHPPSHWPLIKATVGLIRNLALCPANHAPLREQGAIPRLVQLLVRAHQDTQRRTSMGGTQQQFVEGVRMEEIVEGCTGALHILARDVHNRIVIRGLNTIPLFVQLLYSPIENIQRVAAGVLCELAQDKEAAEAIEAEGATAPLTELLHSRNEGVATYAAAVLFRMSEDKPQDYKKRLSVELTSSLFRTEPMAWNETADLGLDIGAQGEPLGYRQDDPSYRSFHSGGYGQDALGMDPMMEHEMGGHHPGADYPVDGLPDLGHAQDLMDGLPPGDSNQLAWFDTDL
Test: Fluorescence polarization IC50 (beta-catenin / 5FAM-TCF4 10-53 competition)
Assay type: binding
Settings: fluorescence polarization; read-out: beta-Catenin FP IC50
valueType: log10 of IC50 (log10 of the value in µM)
Scale: log10; quantity: IC50; unit before log: µM

Which log10 of IC50 reading was recorded for the compound CC(C)C[C@@H]1NC(=O)[C@H](Cc2ccccc2)NC(=O)[C@H](C)NC(=O)[C@H](C)NC(=O)[C@H](CC(=O)O)NC(=O)[C@H](CC(=O)O)NC(=O)C2(CCCC=CCCCOC(=O)N3CC[C@@](C(=O)N[C@@H](Cc4ccccc4)C(=O)N[C@@H](Cc4csc5ccccc45)C(=O)N[C@@H](CCC(N)=O)C(N)=O)(C3)NC1=O)CCCC=CC[C@]1(CCCN1C(=O)CCCN(C)C)C(=O)N[C@@H](CC(=O)O)C(=O)N[C@@H](CC(C)(C)C)C(=O)N2 (some centres unmarked) [I-1358] ? -1.72

Another compound: CC(=O)N1CCC[C@H]1C(=O)N[C@]1(C)CC=CCCCC2(CCCC=CCCCOC(=O)N3CC[C@@](C(=O)N[C@@H](Cc4ccccc4C(F)(F)F)C(=O)N[C@@H](Cc4csc5ccccc45)C(=O)N[C@@H](CCC(N)=O)C(N)=O)(C3)NC(=O)[C@H](CC(C)C)NC(=O)[C@H](Cc3ccccc3)NC(=O)[C@H](C)NC(=O)[C@H](C)NC(=O)[C@H](Cc3cccc(C(=O)O)c3)NC(=O)[C@H](CC(=O)O)NC2=O)NC(=O)[C@H](CC(C)(C)C)NC(=O)[C@H](CC(=O)O)NC1=O (some centres unmarked) [I-2566] -0.74

Next compound: CC(=O)N1CCC[C@]12CC=CCCCC1(CCCC=CCCCOC(=O)N3CC[C@@](C(=O)N[C@@H](Cc4ccsc4)C(=O)N[C@@H](Cc4csc5ccccc45)C(=O)N[C@@H](CCC(N)=O)C(N)=O)(C3)NC(=O)[C@H](CC(N)=O)NC(=O)[C@H](Cc3cccc(Cl)c3)NC(=O)[C@H](C)NC(=O)[C@H](C)NC(=O)[C@H]([C@@H](C)O)NC(=O)[C@H](CC(N)=O)NC1=O)NC(=O)[C@H](CC(C)(C)C)NC(=O)[C@H](CC(=O)O)NC2=O (some centres unmarked) [I-2014] 0.07

Quick one: CC(=O)N1CCC[C@]12CC=CCCCC1(CCCC=CCCCOC(=O)N3CC[C@@](C(=O)N[C@@H](Cc4ccsc4)C(=O)N[C@@H](Cc4csc5ccccc45)C(=O)N[C@@H](C)C(N)=O)(C3)NC(=O)[C@H](CC(C)C)NC(=O)[C@H](Cc3ccc(F)cc3)NC(=O)[C@H](C)NC(=O)[C@H](C)NC(=O)[C@H](Cc3cccc(C(=O)O)c3)NC(=O)[C@H](CC(=O)O)NC1=O)NC(=O)[C@H](CC(C)(C)C)NC(=O)[C@H](CC(=O)O)NC2=O (some centres unmarked) [I-2262] -1.74

Proceed to CC(C)C[C@@H]1NC(=O)[C@H](Cc2ccccc2)NC(=O)[C@H](C)NC(=O)[C@H](C)NC(=O)[C@H](CN(CC(=O)O)CC(F)(F)F)NC(=O)[C@H](CC(=O)O)NC(=O)C2(CCCCCCCCOC(=O)N3CC[C@@](C(=O)N[C@@H](Cc4ccsc4)C(=O)N[C@@H](Cc4csc5ccccc45)C(=O)N[C@@H](CCC(N)=O)C(N)=O)(C3)NC1=O)CCCCCCOc1cccc(c1)C(=O)N[C@@H](CC(=O)O)C(=O)N[C@@H](CC(C)(C)C)C(=O)N2 (some centres unmarked) [I-2376] -0.45

Cited source: patent US20240116985A1
